Every entry's value here was drawn from the supplement of paper PMC10567573.

B1: VDR (parent)
chain: LIKFQVGLKKLNLHEEEHVLLMAI

# Variants of: B1
# Assay Method Text: protein stability index of a GFP-peptide fusion (GPS, HEK-293T) (PSI 1-6); higher = more stable;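 also: lentivirally expressed fusions sorted by FACS into six bins by GFP to DsRed ratio, PSI derived from sequencing read proportions per bin multiplied by bin number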
# Test Settings: c terminus: a fixed tail appended
Give protein stability index for every item shown.
Give bare numbers.

Record protein stability index for all entries; do not skip any.
1. L20Y
2. I2Q
3. F4M
4. L8M
5. F4P

Response:
2.9
3.14
1.75
3.04
1.31

Record protein stability index for all entries; do not skip any.
1. F4C
2. L13W
3. L21C
4. H18I
5. L1H
6. F4S

Response:
1: 3; 2: 2.81; 3: 3.18; 4: 2.93; 5: 2.73; 6: 3.39
